Measurement protocol: Phase I clinical trial: plasma pharmacokinetics
Type: in vivo, human
Conditions: human, in vivo, terminal T1/2
Value kind: half-life (h)
Report the figure in h without appending any unit label.

Q. Answer with reported half-life of `CC(C)(C)c1cc(NC(=O)Nc2ccc(-c3cn4c(n3)sc3cc(OCCN5CCOCC5)ccc34)cc2)no1`
A. 31.2

Origin of values: patent US9555040B2
